Numbers sourced from PubChem BioAssay (NCI).

- Tested on: BT-549 breast
- Assay: NCI tumour cell line growth inhibition, 48 h

Compound: O=[N+]([O-])c1ccc2sc(C=Nc3ccc(O)cc3)cc2c1
TGI: > 100 µM
--
Compound: COc1ccc(-c2nc(N3CCCC3)no2)cc1
TGI: > 100 µM
--
Compound: [N-]=[N+]=NCC1OC(n2cnc3c(N)ncnc32)C2OC12 (stereo not drawn)
TGI: > 100 µM

====

- System: MCF7 breast
- Assay: NCI tumour cell line growth inhibition, 48 h
Recorded TGI values for a group of molecules are listed next.
Measured attribute: TGI

Molecule: COc1ccc([C@H]2CC(=O)C[C@H](c3ccc(OC)cc3OC)C23C(=O)c2ccccc2C3=O)c(OC)c1
Result: > 100 µM
//
Molecule: C=CC1(c2ccc(-c3ccccc3)cc2)OCCO1
Result: > 100 µM
//
Molecule: Cc1ccc(N2CN3OC(=O)N(c4ccccc4)[C@@]3(c3ccccc3)C2)cc1
Result: > 100 µM
//
Molecule: O=C1CCc2c(Oc3ccc4c(c3)[C@H]3[C@@H](O4)[C@@H]3c3nc4ccc(C(F)(F)F)cc4[nH]3)ccnc2N1
Result: > 100 µM
//
Molecule: C=CCNC(=S)/N=C\C(C(=O)OCC)=C(/O)C(=O)OCC
Result: > 100 µM
//
Molecule: Cc1ccc2cc3c(cc(C)c4ccccc43)c3c2c1CC3
Result: > 100 µM
//
Molecule: Nc1ncnc2c1ccn2COC(CO)CO
Result: > 100 µM
//
Molecule: COC(=O)[C@]1(c2cc3ccccc3[nH]2)CC2CN(C(=O)OCc3ccccc3)C1C=C2OC (some centres not stated)
Result: 58.5 µM
//
Molecule: Cc1ccc(C(=O)CC(O)(C(F)(F)F)C(F)(F)F)cc1[N+](=O)[O-]
Result: 11 µM
//
Molecule: CC1(C)[C@@H]2CC[C@@]1(C)C1(SS1=O)C21Cc2ccccc2C1 (some centres not stated)
Result: 63.9 µM
//
Molecule: CCOP(=O)(CN1CCNCCN(CP(=O)(OCC)OCC)CC1)OCC
Result: > 100 µM
//
Molecule: CCN(CC)CC1CCCCN1CC(=O)N1c2ccccc2NC(=O)c2ccccc21 (configuration not stated)
Result: > 100 µM
//
Molecule: CC(C)(Br)C(Br)CCC1(C(Br)CBr)CO1 (configuration not stated)
Result: > 10 µM
//
Molecule: COC(=O)/C=C/CC(=O)NS(C)(=O)=O
Result: > 10 µM
//
Molecule: Cc1nc2ccc(Cl)cc2c(Cl)c1CCCl
Result: 99.2 µM
//
Molecule: CCOC(=O)CCC(NC(=O)c1ccc(Sc2nc3cc(N)cc(N)c3nc2-c2ccccc2)cc1)C(=O)OCC (configuration not stated)
Result: > 100 µM
//
Molecule: CCOC(=O)CO/N=C\C1=CC(=O)C2CC1C2(C)C (configuration not stated)
Result: > 100 µM
//
Molecule: C/C(=N\[N+](C)(C)C)c1ccc(C)c(C)c1
Result: > 100 µM
//
Molecule: COc1cccc(/C=C2\COc3ccc(O)c(O)c3C2=O)c1
Result: 3.12 µM
//
Molecule: CC(C)N(Cc1c(F)cccc1F)c1ccc(CO)c(Cl)c1
Result: 13.6 µM
//
Molecule: Oc1ccc[n+](Cc2ccccc2)c1
Result: > 100 µM
//
Molecule: COc1ccc(C2=C(c3cn(C)c4ccccc34)C(=O)OC2)cc1OC
Result: > 100 µM
